# Measurement Target: AMCase (Homo sapiens)
# Construct: the catalytic domains of OfChtI from Ostrinia furnacalis (O. furnacalis), human HsCht and acidic mammalian chitinase (AMCase)
# Sequence (Q9BZP6 22-390 limits assumed): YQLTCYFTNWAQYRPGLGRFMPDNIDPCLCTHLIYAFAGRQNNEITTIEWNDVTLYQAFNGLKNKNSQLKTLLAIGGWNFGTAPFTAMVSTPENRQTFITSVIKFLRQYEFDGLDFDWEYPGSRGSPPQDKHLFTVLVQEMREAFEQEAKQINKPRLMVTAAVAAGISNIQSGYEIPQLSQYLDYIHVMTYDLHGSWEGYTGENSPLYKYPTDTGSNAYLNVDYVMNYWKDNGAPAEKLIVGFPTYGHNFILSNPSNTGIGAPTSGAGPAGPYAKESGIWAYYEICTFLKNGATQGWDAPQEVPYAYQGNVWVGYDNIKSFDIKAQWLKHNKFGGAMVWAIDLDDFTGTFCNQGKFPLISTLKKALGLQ
# Protocol Notes: Inhibitory activity determination with MU-β-(GlcNAc)2, Dixon plots

Molecule: C[C@H]1O[C@H](O[C@H]2[C@H](O)[C@@H](O)[C@@H](O)[C@H](O)[C@@H]2O)[C@@H](N)C[C@@H]1NC(=N)C(=O)O [kasugamycin, Kasugamycin]
Measurement Target: AMCase (Homo sapiens)
Ki, µM: 6.27

---

# Measurement Target: SmChiA (Serratia marcescens, UniProt P07254)
# Construct: made in house; host or cells: Escherichia coli BL21 (DE3)
# Sequence (P07254 24-563): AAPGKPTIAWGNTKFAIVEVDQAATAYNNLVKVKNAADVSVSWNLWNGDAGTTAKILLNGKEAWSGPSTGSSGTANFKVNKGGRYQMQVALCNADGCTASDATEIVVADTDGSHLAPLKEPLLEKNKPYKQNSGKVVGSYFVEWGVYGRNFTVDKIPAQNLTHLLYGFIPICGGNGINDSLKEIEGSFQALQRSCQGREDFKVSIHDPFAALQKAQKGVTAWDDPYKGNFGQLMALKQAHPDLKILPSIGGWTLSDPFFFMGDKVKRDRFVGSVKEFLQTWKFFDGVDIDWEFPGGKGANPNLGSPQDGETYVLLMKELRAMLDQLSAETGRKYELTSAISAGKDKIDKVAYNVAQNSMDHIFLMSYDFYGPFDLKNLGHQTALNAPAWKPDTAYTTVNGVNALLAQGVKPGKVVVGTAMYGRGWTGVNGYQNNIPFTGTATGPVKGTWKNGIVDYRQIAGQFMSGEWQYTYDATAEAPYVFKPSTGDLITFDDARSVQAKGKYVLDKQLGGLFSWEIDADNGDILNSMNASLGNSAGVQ
# Protocol Notes: Tryptophan fluorescence quenching spectroscopy
# Type: binding
Metric Name: Kd

Smiles Data: C[C@H]1O[C@H](O[C@H]2[C@H](O)[C@@H](O)[C@@H](O)[C@H](O)[C@@H]2O)[C@@H](N)C[C@@H]1NC(=N)C(=O)O
Measurement Target: SmChiA (Serratia marcescens, UniProt P07254)
Readout Value: 34.1 µM
